# experimental system: Luciferin 4-monooxygenase (Photuris pensylvanica)
# test description: Counterscreen for Luciferase (Kinase-Glo TM) Inhibition; further: on the % scale 0 is the no-effect control and ±100 the full control effect; nearly all actives have a fitted effect of over 60% in size
# conditions: ATP luminescence, 8 min; series mostly up to 38.3 µM
Among all 200,000 compounds or so, about 560 (0.28%) were called active. This excerpt belongs to a sample that is enriched for actives.
quantity name: activity change, negative = inhibition

QUERY: Sample CC(=O)[C@H](C(c1ccccc1)N1CCOCC1)N1CCOCC1 (stereo partly drawn) — what was its activity change, negative = inhibition?
RESULT: -6.68% [at 7.66 µM] (inactive)

QUERY: Sample CCN1C(=O)N[C@@H](CCc2ccccc2)C(C(=O)OC)=C1C — what was its activity change, negative = inhibition?
RESULT: 0.314% [at 7.66 µM] (inactive)

Proceeding to the next molecule to report its activity change, negative = inhibition.
QUERY: Sample CCCCC1=CC2=CC(=O)C(C)(OC(=O)CC)C(=O)C2=CN1CCCOC(C)C (stereo not drawn) — what was its activity change, negative = inhibition?
RESULT: -3.21% [at 7.66 µM] (inactive)
